Origin of the recorded values: ChEMBL document CHEMBL1159072

assayed target: Beta-lactamase (Pseudomonas aeruginosa (strain ATCC 15692 / PAO1 / 1C / PRS 101 / LMG12228)) (UniProt P24735)
Sequence (P24735 27-397 limits assumed): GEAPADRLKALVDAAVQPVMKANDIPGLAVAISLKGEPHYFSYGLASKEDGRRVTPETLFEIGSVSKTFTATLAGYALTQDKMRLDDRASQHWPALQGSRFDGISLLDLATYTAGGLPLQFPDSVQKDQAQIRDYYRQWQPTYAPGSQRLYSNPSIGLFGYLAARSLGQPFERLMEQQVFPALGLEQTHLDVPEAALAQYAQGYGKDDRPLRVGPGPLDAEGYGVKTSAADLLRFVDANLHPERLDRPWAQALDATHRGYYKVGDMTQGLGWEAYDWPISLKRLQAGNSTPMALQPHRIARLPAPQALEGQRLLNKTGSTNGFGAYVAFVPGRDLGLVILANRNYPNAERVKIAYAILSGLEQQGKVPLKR
assay remarks: Inhibition of Pseudomonas aeruginosa CL5701 beta lactamase AmpC assessed as concentration required to reduce imipenem MIC
experimental endpoint: Activity

O=C(NC1CCCCNCCC1)N1CC[C@@H]2[C@H]1C(=O)N2S(=O)(=O)O (stereo in doubt; 14): > 100 µM
O=C(NC1CCCCNCCC1)N1CC[C@@H]2[C@H]1C(=O)N2S(=O)(=O)O (stereo in doubt; 13): > 100 µM
O=C(NC1CCCCCC1)N1CC[C@@H]2[C@H]1C(=O)N2S(=O)(=O)O: > 100 µM

Hi team, please reply with Activity for each item in this list.
1. O=C1NCCCC[C@@H]1NC(=O)N1CC[C@@H]2[C@H]1C(=O)N2S(=O)(=O)O
2. O=C(NC1CCCCNCC1)N1CC[C@@H]2[C@H]1C(=O)N2S(=O)(=O)O (stereo in doubt; 12)

1: > 100 µM; 2: > 100 µM
